Molecular target: 5-hydroxytryptamine receptor 1A (Rattus norvegicus, UniProt P19327)
Sequence (P19327 whole entry): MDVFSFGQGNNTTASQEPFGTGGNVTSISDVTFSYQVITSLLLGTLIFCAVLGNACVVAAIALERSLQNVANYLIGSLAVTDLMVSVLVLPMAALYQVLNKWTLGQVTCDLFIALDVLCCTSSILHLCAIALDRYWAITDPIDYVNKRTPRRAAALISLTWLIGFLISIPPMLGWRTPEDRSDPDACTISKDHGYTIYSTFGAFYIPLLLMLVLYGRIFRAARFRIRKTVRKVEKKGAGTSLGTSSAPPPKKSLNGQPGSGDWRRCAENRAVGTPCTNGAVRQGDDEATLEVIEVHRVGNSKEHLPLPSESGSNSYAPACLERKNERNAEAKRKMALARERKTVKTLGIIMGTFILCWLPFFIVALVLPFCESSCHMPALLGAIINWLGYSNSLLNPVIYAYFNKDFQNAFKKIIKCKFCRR
Experiment: In vitro binding affinity of compound towards 5-hydroxytryptamine 1A receptor was determined using [3H]-8-OH-DPAT as radioligand; range=48-77
property-label: pKi
Note on units: pKi is unitless, being -log10 of a concentration expressed in mol/L.

Test item CCCN(CCC)C1CC1c1ccccc1F (stereo unspecified) ; 5-hydroxytryptamine receptor 1A (Rattus norvegicus, UniProt P19327); reported pKi was 7.23

The measured values listed here are drawn from ChEMBL document CHEMBL1129542.
